Data credit: patent US20220267310A1

- assay info: Pharmacokinetic evaluation in mice, IV and PO
- Type: in vivo, Balb/c female mice
- stated conditions: female, Balb/c; IV(1 mg/kg), mouse plasma; read-out: Vdss
Kindly supply the reported Vd values for the records listed here.
Numbers only here, please. The scale is L/kg.

Form: compound = COc1ccc([C@@H](O)c2cc(-c3nncc4cc(N5CCOCC5)ccc34)c(F)cc2Cl)nn1 [Embodiment M3814, reference compound] ; Vd = 1.34

Form: compound = COc1ccc(C(O)c2cc(-c3cnnc4cc(N5CCOCC5)ccc34)c(F)cc2Cl)nn1 (stereo not drawn) [Embodiment 3] ; Vd = 1.42

Form: compound = COc1ccc(C(O)c2cc(-c3ccnc4c(F)c(N5CCOCC5)cc(F)c34)c(F)cc2Cl)nn1 (single isomer, unassigned) [Embodiment 22] ; Vd = 2.32

* * *

- assay info: Pharmacokinetic evaluation in mice, IV and PO
- Format: in vivo, Balb/c female mice
- stated conditions: female, Balb/c; PO(10 mg/kg), mouse plasma
- Experimental: The tested compound was mixed with 10% DMSO/50% PEG400/40% water, vortexized and ultrasonic to prepare 0.2 mg/mL or 0.4 mg/ml, approximately clarified solution, which was filtered by a microporous membrane and then standby. […] Drug concentration was analyzed by LC-MS/MS method, and pharmacokinetic parameters were calculated by Phoenix WinNonlin software (US Pharsight company). […]
reported property: AUC(0-t) (µM·h)
Numbers only here, please. The scale is µM·h.

Form: compound = COc1ccc([C@@H](O)c2cc(-c3nncc4cc(N5CCOCC5)ccc34)c(F)cc2Cl)nn1 [Embodiment M3814, reference compound] ; AUC(0-t) = 3.73

* * *

- assay info: Pharmacokinetic evaluation in mice, IV and PO
- Format: in vivo, Balb/c female mice
- stated conditions: female, Balb/c; IV(2 mg/kg), mouse plasma
- Method: The tested compound was mixed with 10% DMSO/50% PEG400/40% water, vortexized and ultrasonic to prepare 0.2 mg/mL or 0.4 mg/ml, approximately clarified solution, which was filtered by a microporous membrane and then standby. […] Drug concentration was analyzed by LC-MS/MS method, and pharmacokinetic parameters were calculated by Phoenix WinNonlin software (US Pharsight company). […]
reported property: clearance (mL/min/kg)
Numbers only here, please. The scale is mL/min/kg.

Form: compound = COc1ccc([C@@H](O)c2cc(-c3nncc4cc(N5CCOCC5)ccc34)c(F)cc2Cl)nn1 [Embodiment M3814, reference compound] ; clearance = 49

* * *

- assay info: Pharmacokinetic evaluation in mice, IV and PO
- Type: in vivo, Balb/c female mice
- stated conditions: female, Balb/c; PO(2 mg/kg), mouse plasma
reported property: Cmax (nM)
Numbers only here, please. The scale is nM.

Form: compound = COc1ccc(C(O)c2cc(-c3ccnc4c(F)c(N5CCOCC5)cc(F)c34)c(F)cc2Cl)nn1 (single isomer, unassigned) ; Cmax = 456

Form: compound = COc1ccc([C@@H](O)c2cc(-c3nncc4cc(N5CCOCC5)ccc34)c(F)cc2Cl)nn1 [Embodiment M3814, reference compound] ; Cmax = 580

Form: compound = COc1ccc(C(O)c2cc(-c3cnnc4cc(N5CCOCC5)ccc34)c(F)cc2Cl)nn1 (stereo not drawn) ; Cmax = 459

* * *

Kindly supply the reported C0 values for the records listed here.
- assay info: Pharmacokinetic evaluation in mice, IV and PO
- Format: in vivo, Balb/c female mice
- stated conditions: IV(2 mg/kg), mouse plasma
- Method: The tested compound was mixed with 10% DMSO/50% PEG400/40% water, vortexized and ultrasonic to prepare 0.2 mg/mL or 0.4 mg/ml, approximately clarified solution, which was filtered by a microporous membrane and then standby. […] Drug concentration was analyzed by LC-MS/MS method, and pharmacokinetic parameters were calculated by Phoenix WinNonlin software (US Pharsight company). […]
Numbers only here, please. The scale is nM.

Form: compound = COc1ccc(C(O)c2cc(-c3cnnc4c(F)c(N5CCOCC5)cc(F)c34)c(F)cc2Cl)nn1 (single isomer, unassigned) ; C0 = 2250

Form: compound = COc1ccc(C(O)c2cc(-c3ccnc4cc(N5CCOCC5)ccc34)c(F)cc2Cl)nn1 (single isomer, unassigned) ; C0 = 1810
